Assay: Peptide stability in simulated intestinal fluid (SIF)
Assay type: in vitro ADME
Settings: pig, 37 °C, porcine pancreatin, pH 6.8, 4 h, read-out: SIF (% remaining 4 h)
Where a SMILES comes first, the peptide text is derived from it. Bridges are numbered along the chain shown (N, C = ends). [ ]: non-standard residue; d: D form. 2Nal = N[C@@H](Cc1ccc2ccccc2c1)C(=O)O; AEF = NCCOc1ccc(C[C@H](N)C(=O)O)cc1; 3Pal = N[C@@H](Cc1cccnc1)C(=O)O; αMeL = CC(C)C[C@](C)(N)C(=O)O; NMeK = CN[C@@H](CCCCN)C(=O)O; Dab = NCC[C@H](N)C(=O)O; βAla = NCCC(=O)O
Each entry below lists one item and its recorded remaining at 4 h, 10 µM value.
Number in %, nothing else.

Use these answered entries as a reference point.
Indicate its recorded remaining at 4 h, 10 µM; the compound in question is CNC(=O)[C@H](Cc1cccnc1)NC(=O)[C@H](CCN)NC(=O)[C@@H]1CCC(=O)NCCCC[C@H]2C(=O)NCCC(=O)N[C@@H](Cc3c[nH]c4ccccc34)C(=O)N[C@@H](CCC(N)=O)C(=O)N[C@@H](CCC(=O)N2C)C(=O)N[C@@H](Cc2ccc(OCCN)cc2)C(=O)N[C@@H](Cc2ccc3ccccc3c2)C(=O)N[C@@](C)(CC(C)C)C(=O)N1 [Compound 80] ([NMeK][βAla]WQE[AEF][2Nal][αMeL]E[Dab][3Pal]-NHMe; lactam 1-9, N-5)
89

Indicate its recorded remaining at 4 h, 10 µM; the compound in question is CC(=O)N[C@@H](CC(=O)O)C(=O)N[C@H]1CCC(=O)NCCCC[C@@H](C(=O)N[C@@H](CCCNC(=N)N)C(N)=O)NC(=O)[C@H](CC(C)C)NC(=O)[C@H](Cc2ccc3ccccc3c2)NC(=O)[C@H](Cc2c[nH]c3ccccc23)NC(=O)[C@@H]2CSCC(=O)CSC[C@H](NC(=O)[C@H](CO)NC1=O)C(=O)N[C@@H](Cc1c[nH]c3ccccc13)C(=O)N[C@@H](CCC(N)=O)C(=O)N2 [Ref 17, reference compound]
0

***
Indicate its recorded remaining at 4 h, 10 µM; the compound in question is CNC(=O)[C@H](Cc1cccnc1)NC(=O)[C@H](Cc1cccnc1)NC(=O)[C@@H]1CCC(=O)NCCCC[C@@H]2NC(=O)CC[C@H](NC(=O)[C@H](CCC(N)=O)NC(=O)[C@H](Cc3c[nH]c4ccccc34)NC(=O)CCNC2=O)C(=O)N[C@@H](Cc2ccc(OCCN)cc2)C(=O)N[C@@H](Cc2ccc3ccccc3c2)C(=O)N[C@@](C)(CC(C)C)C(=O)N1
1

Indicate its recorded remaining at 4 h, 10 µM; the compound in question is CC[C@H](C)[C@@H]1NC(=O)[C@@H]2CCCCNC(=O)CC[C@@H](C(=O)N[C@@H](Cc3cn(C)cn3)C(=O)N[C@@H](Cc3cccnc3)C(=O)NC)NC(=O)[C@](C)(CC(C)C)NC(=O)[C@H](Cc3ccc4ccccc4c3)NC(=O)[C@H](Cc3ccc(OCCN)cc3)NC(=O)[C@H](CCC(=O)N2)NC(=O)[C@H](CCC(N)=O)NC(=O)[C@H](Cc2c[nH]c3ccccc23)NC(=O)[C@H](C(C)C)NC1=O
0

Indicate its recorded remaining at 4 h, 10 µM; the compound in question is CC[C@H](C)[C@@H]1NC(=O)[C@@H]2CCCCNC(=O)CC[C@@H](C(=O)NCC(=O)N[C@H](Cc3cccnc3)C(N)=O)NC(=O)[C@](C)(C(C)C)NC(=O)[C@H](Cc3ccc4ccccc4c3)NC(=O)[C@H](Cc3ccc(C)cc3)NC(=O)[C@H](CCC(=O)N2)NC(=O)[C@H](CCC(N)=O)NC(=O)[C@H](Cc2c[nH]c3ccccc23)NC(=O)[C@H](C(C)C)NC1=O
27
